- target: HNRNPR (UniProt O43390)
- Sequence: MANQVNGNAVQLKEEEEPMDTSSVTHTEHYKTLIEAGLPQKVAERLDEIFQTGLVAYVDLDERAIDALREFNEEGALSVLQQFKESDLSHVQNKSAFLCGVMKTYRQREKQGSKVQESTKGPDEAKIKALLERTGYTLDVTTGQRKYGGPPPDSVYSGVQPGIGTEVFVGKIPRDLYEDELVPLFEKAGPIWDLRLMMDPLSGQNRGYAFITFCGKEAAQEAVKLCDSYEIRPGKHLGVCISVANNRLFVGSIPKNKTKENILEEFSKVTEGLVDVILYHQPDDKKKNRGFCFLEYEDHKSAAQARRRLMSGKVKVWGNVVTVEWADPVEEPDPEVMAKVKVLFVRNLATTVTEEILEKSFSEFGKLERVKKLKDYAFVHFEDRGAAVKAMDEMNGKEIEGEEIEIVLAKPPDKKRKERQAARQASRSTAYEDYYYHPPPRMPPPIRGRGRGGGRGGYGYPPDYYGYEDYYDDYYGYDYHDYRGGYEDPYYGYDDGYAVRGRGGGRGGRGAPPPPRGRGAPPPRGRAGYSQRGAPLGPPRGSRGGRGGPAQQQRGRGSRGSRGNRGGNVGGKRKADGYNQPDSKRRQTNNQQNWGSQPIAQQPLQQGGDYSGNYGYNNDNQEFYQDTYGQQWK
- experiment.summary: Kd (EC50 corrected by depletion factor)

{"residues": "AAUAAA", "Kd [nM]": 677}
